Reported Inhibition rate against Methicillin-sensitive Staphylococcus aureus (%) by item:
- System: Methicillin-sensitive Staphylococcus aureus (NRS 384)
- Format: in vivo, ICR mice
- CONDITION CONTEXT: topical formulation 0.2 mg/mL, 0.1 mL twice a day for 4 days, mouse back skin infection
Non-standard residues stand in square brackets, D forms with d. PEG2000 = polyethylene glycol 2000, conjugated to the N-terminus; PEG4000 = polyethylene glycol 4000, conjugated to the C-terminus; PEG200 = polyethylene glycol 200, conjugated to the C-terminus; PEG500 = polyethylene glycol 500, conjugated to the C-terminus; 2Nal = N[C@@H](Cc1ccc2ccccc2c1)C(=O)O; PEG1000 = polyethylene glycol 1000
Field: numeric (%). Do not append units.

Field: example entries. Status: answers known.
[
  {
    "SUBSTANCE": "Ac-RKLLXRLKXRK-PEG200 [LV-26] (Ac-RKLL[2Nal]RLK[2Nal]RK-PEG200) [polyethylene glycol 200 conjugated to C-terminal; X=3-(2-naphthyl)-alanine]",
    "TARGET ENTITY": "Methicillin-sensitive Staphylococcus aureus (NRS 384)",
    "READOUT VALUE": 96.35
  },
  {
    "SUBSTANCE": "PEG2000-RKLLXRLKXRK-NH2 [LV-29] (PEG2000-RKLL[2Nal]RLK[2Nal]RK-NH2) [polyethylene glycol 2000 conjugated to N-terminal; X=3-(2-naphthyl)-alanine]",
    "TARGET ENTITY": "Methicillin-sensitive Staphylococcus aureus (NRS 384)",
    "READOUT VALUE": 96.49
  },
  {
    "SUBSTANCE": "Ac-RKLLXRLKXRK-PEG4000 [LV-30] (Ac-RKLL[2Nal]RLK[2Nal]RK-PEG4000) [polyethylene glycol 4000 conjugated to C-terminal; X=3-(2-naphthyl)-alanine]",
    "TARGET ENTITY": "Methicillin-sensitive Staphylococcus aureus (NRS 384)",
    "READOUT VALUE": 96.07
  },
  {
    "SUBSTANCE": "Ac-RKLLXRLKXRK-PEG500 [LV-27] (Ac-RKLL[2Nal]RLK[2Nal]RK-PEG500) [polyethylene glycol 500 conjugated to C-terminal; X=3-(2-naphthyl)-alanine]",
    "TARGET ENTITY": "Methicillin-sensitive Staphylococcus aureus (NRS 384)",
    "READOUT VALUE": 97.01
  }
]

Next up:
Data request: # input substance: Ac-RKLLXRLKXRK-PEG1000 [LV-28] (Ac-RKLL[2Nal]RLK[2Nal]RK-PEG1000) [polyethylene glycol 1000 conjugated to C-terminal; X=3-(2-naphthyl)-alanine] ; wanted: its Inhibition rate against Methicillin-sensitive Staphylococcus aureus (%)
Data returned: 96.03
